Source listed as patent US5981517A.

- experiment-description: Stability in liver homogenate
- Format: in vitro ADME, rat
- measurement-parameters: 20% rat liver homogenate, 0.1 mM, 37° C.; read-out: Half-life (t1/2), Liver
measured-metric: half-life at 100 µM
Reply with the number, then its unit.

The value of half-life at 100 µM measured for the molecule CCOC(=O)[C@@]1(OC(=O)C(Cl)Cl)CC[C@H]2[C@@H]3CCC4=CC(=O)C=C[C@]4(C)[C@H]3[C@@H](O)C[C@@]21C [Compound B] turned out to be 18.8 min

* * *

For each of the compounds below, state its half-life.
- experiment-description: physchem
- Format: physicochemical
- measurement-parameters: aqueous phosphate buffer, pH 6.56
The reply should contain only the number, in h.

The value of half-life measured for the compound COC(=O)[C@@]1(OC(=O)C(Cl)Cl)CC[C@H]2[C@@H]3CCC4=CC(=O)C=C[C@]4(C)[C@H]3[C@@H](O)C[C@@]21C [Compound A] turned out to be 19.1

The value of half-life measured for the compound C[C@]12C=CC(=O)C=C1CC[C@@H]1[C@@H]2[C@@H](O)C[C@@]2(C)[C@H]1CC[C@]2(OC(=O)C(Cl)Cl)C(=O)OCCl [Compound D] turned out to be 0.822

The value of half-life measured for the compound CC(C)OC(=O)[C@@]1(OC(=O)C(Cl)Cl)CC[C@H]2[C@@H]3CCC4=CC(=O)C=C[C@]4(C)[C@H]3[C@@H](O)C[C@@]21C [Compound C] turned out to be 11.3

The value of half-life measured for the compound CCOC(=O)[C@@]1(OC(=O)C(Cl)Cl)CC[C@H]2[C@@H]3CCC4=CC(=O)C=C[C@]4(C)[C@H]3[C@@H](O)C[C@@]21C [Compound B] turned out to be 16.7
